ASSAY EXPLANATION: in vitro
DETAILS: CD-1, mouse, liver microsomes, pH 7.4
For each entry below, report its remaining at 0.5 h, 25 µM value.
Answers are plain numbers, in %.

Some solved cases for reference:
- MOLECULE: "Cc1ncsc1-c1ccc([C@H](C)NC(=O)[C@@H]2C[C@@H](O)CN2C(=O)[C@@H](NC(=O)CCOCCOCCOCCNC(=O)c2cc(Oc3ccc(NC(=O)Nc4cc(C(C)(C)C)on4)cc3)ccn2)C(C)(C)C)cc1 [MA49, reference compound]"
  remaining at 0.5 h, 25 µM / %: 37
- MOLECULE: "Cc1ncsc1-c1ccc([C@H](C)NC(=O)[C@@H]2C[C@@H](O)CN2C(=O)[C@@H](NC(=O)[C@H]2CC[C@H](C(=O)N3CCC(CCNC(=O)c4cc(Oc5ccc(NC(=O)Nc6cc(C(C)(C)C)on6)cc5)ccn4)CC3)CC2)C(C)(C)C)cc1"
  remaining at 0.5 h, 25 µM / %: 95
- MOLECULE: "O=C(O)Cc1ccccc1Nc1c(Cl)cccc1Cl [Diclofenac, Diclofenac sodium, reference compound]"
  remaining at 0.5 h, 25 µM / %: 78

The record that follows has no remaining at 0.5 h, 25 µM shown yet.
# remaining at 0.5 h, 25 µM lookup, item "Cc1ncsc1-c1ccc([C@H](C)NC(=O)[C@@H]2C[C@@H](O)CN2C(=O)[C@@H](NC(=O)[C@H]2CC[C@H](C(=O)N3CCN(CCNC(=O)c4cc(Oc5ccc(NC(=O)Nc6cc(C(C)(C)C)on6)cc5)ccn4)CC3)CC2)C(C)(C)C)cc1"
94

* * *

Field: remaining at 6 h, 10 µM. Provide a value for each of the compounds that follow.
ASSAY EXPLANATION: Plasma stability
Type: in vitro ADME
DETAILS: pooled human plasma, 37 °C, 10 μM, 360 min, read-out: 360 min—Compound Remaining %
One number for each entry, in %.

Observe how each entry below is paired with its result.
- COMPOUND: "Cc1ncsc1-c1ccc([C@H](C)NC(=O)[C@@H]2C[C@@H](O)CN2C(=O)[C@@H](NC(=O)CCOCCOCCOCCNC(=O)c2cc(Oc3ccc(NC(=O)Nc4cc(C(C)(C)C)on4)cc3)ccn2)C(C)(C)C)cc1 [MA49, reference compound]"
  remaining at 6 h, 10 µM, %: 95.4
- COMPOUND: "CNC(=O)c1cc(Oc2ccc(NC(=O)Nc3cc(C(C)(C)C)on3)cc2)ccn1 [MA68, reference compound]"
  remaining at 6 h, 10 µM, %: 88.9
- COMPOUND: "Cc1ncsc1-c1ccc([C@H](C)NC(=O)[C@@H]2C[C@@H](O)CN2C(=O)[C@@H](NC(=O)[C@H]2CC[C@H](C(=O)N3CCN(CCNC(=O)c4cc(Oc5ccc(NC(=O)Nc6cc(C(C)(C)C)on6)cc5)ccn4)CC3)CC2)C(C)(C)C)cc1 [MA191]"
  remaining at 6 h, 10 µM, %: 93.3

What value of remaining at 6 h, 10 µM has been reported for the following compound? Cc1ncsc1-c1ccc([C@H](C)NC(=O)[C@@H]2C[C@@H](O)CN2C(=O)[C@@H](NC(=O)[C@H]2CC[C@H](C(=O)N3CCC(CCNC(=O)c4cc(Oc5ccc(NC(=O)Nc6cc(C(C)(C)C)on6)cc5)ccn4)CC3)CC2)C(C)(C)C)cc1 [MA190]
86.2

Hey, just so you know, these numbers are from paper PMC13210772.
